- System tested: T1, Human BCMA (human, UniProt Q02223 1-54, limits assumed)
- T1 construct: Soluble analyte in SPR; construct not described; also called huBCMA; B-cell maturation antigen
- T1 sequence (looked up): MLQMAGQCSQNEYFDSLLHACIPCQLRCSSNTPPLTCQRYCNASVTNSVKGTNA
- Protocol text: SPR, IgG immobilised, 37 C
Parameter: koff (s⁻¹)
Provide the reading as a plain figure in s⁻¹.

What value of koff has been recorded for this entry: L3.PY/H2.QL (antibody, V domains shown, IgG) VH: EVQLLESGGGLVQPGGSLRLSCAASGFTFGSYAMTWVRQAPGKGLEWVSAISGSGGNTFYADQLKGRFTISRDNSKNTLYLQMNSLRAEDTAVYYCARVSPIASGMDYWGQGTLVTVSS VL: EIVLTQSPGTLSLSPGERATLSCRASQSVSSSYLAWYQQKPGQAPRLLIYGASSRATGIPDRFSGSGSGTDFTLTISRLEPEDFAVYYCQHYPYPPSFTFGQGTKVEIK
0.00218

What value of koff has been recorded for this entry: L3.PY/L3.KF/H2.LT (antibody, V domains shown, IgG) VH: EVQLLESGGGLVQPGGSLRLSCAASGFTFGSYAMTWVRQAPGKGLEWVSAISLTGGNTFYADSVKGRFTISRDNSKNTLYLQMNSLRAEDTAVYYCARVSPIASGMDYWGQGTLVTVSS VL: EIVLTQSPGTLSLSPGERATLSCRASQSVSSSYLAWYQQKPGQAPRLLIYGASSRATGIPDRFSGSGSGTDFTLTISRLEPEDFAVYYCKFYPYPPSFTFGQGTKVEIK
0.00191
